From: the supplement of paper PMC9732359

experiment: protein stability index of a GFP-peptide fusion (yeast GPS) (PSI 1-4); higher = more stable; sorted into four equal gates, so the index is relative within each strain; conditions: san1∆
Known protein stability index of a selection of sequences
Just the number, please, no unit attached.

VTIIEPKEEEPILAPSV [RPS3] | 3.01
HRLIATHTNLERDEQKR [SNF2] | 3.01
YGPPGTGKTLLAKAVAA [RPT4] | 1.98

Per the record, YLKESKRKYDEITHPPS [SWI3] has protein stability index of 3.02

Record TLVGGGAKITPEMIKRS [RRP43] , field protein stability index: 2.74

Noted for IEPVTKVSSLKMFIQRI [YCS4] : its protein stability index reads 3.17
